- test system: FITC-labeled human GRK6A C-terminal 22 amino acid peptide, GRK6Act-22 (human)
- experiment notes: fluorescence polarisation; fluorescence anisotropy, direct saturation binding in solution; recombinant protein titrated to fixed FITC-GRK6Act-22 (0.4–1.0 μM); PBS pH 7.4, 0.1% BSA, 1 mM DTT, 23 °C; quadratic fit
measurement type: Kd (µM)
Numeric only. Scale: µM

The following binders have reported results that may help.
1. recombinant full-length NHERF1 (natural protein) MSADAAAGAPLPRLCCLEKGPNGYGFHLHGEKGKLGQYIRLVEPGSPAEKAGLLAGDRLVEVNGENVEKETHQQVVSRIRAALNAVRLLVVDPETDEQLQKLGVQVREELLRAQEAPGQAEPPAAAEVQGAGNENEPREADKSHPEQRELRPRLCTMKKGPSGYGFNLHSDKSKPGQFIRSVDPDSPAEASGLRAQDRIVEVNGVCMEGKQHGDVVSAIRAGGDETKLLVVDRETDEFFKKCRVIPSQEHLNGPLPVPFTNGEIQKENSREALAEAALESPRPALVRSASSDTSEELNSQDSPPKQDSTAPSSTSSSDPILDFNISLAMAKERAHQKRSSKRAPQMDWSKKNELFSNL ... 5.3
2. S162A-PDZ2 (133–300 aa) (domain or fragment) NENEPREADKSHPEQRELRPRLCTMKKGPAGYGFNLHSDKSKPGQFIRSVDPDSPAEASGLRAQDRIVEVNGVCMEGKQHGDVVSAIRAGGDETKLLVVDRETDEFFKKCRVIPSQEHLNGPLPVPFTNGEIQKENSREALAEAALESPRPALVRSASSDTSEELNSQ ... 43.4
3. WT PDZ2 domain (133–300 aa) of NHERF1 (domain or fragment) NENEPREADKSHPEQRELRPRLCTMKKGPSGYGFNLHSDKSKPGQFIRSVDPDSPAEASGLRAQDRIVEVNGVCMEGKQHGDVVSAIRAGGDETKLLVVDRETDEFFKKCRVIPSQEHLNGPLPVPFTNGEIQKENSREALAEAALESPRPALVRSASSDTSEELNSQ ... 51.3

Quick note, Kd for pSer162-PDZ2 (133–300 aa) (domain or fragment, phosphoserine at 162) NENEPREADKSHPEQRELRPRLCTMKKGPSGYGFNLHSDKSKPGQFIRSVDPDSPAEASGLRAQDRIVEVNGVCMEGKQHGDVVSAIRAGGDETKLLVVDRETDEFFKKCRVIPSQEHLNGPLPVPFTNGEIQKENSREALAEAALESPRPALVRSASSDTSEELNSQ landed at 26.1
